Origin of measurements: patent US20260274955A1

Target: Anti-CD28 Fab (SEQ ID NOs: 202, 203)
Sequence (VH, as listed by the source, chain 1 of 2): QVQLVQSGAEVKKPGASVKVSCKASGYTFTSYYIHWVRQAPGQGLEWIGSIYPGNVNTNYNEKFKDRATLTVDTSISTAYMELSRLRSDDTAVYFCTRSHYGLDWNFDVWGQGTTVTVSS
Sequence (VL, as listed by the source, chain 2 of 2): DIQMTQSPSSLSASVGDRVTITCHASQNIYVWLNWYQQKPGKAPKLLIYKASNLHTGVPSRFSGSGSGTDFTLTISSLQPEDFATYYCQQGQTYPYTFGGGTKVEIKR
Assay: phage binding ELISA on captured Fab;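 note: clonal phage supernatants added briefly to wells pre-incubated with CD28 antigen or with blocking buffer only, then washed, bound phage read by ELISA using HRP-coupled anti-M13 antibody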
The label is Criterion met for Anti-CD28 Fab (SEQ ID NOs: 202, 203) signal below 0.6 and Criterion not met for Anti-CD28 Fab (SEQ ID NOs: 202, 203) signal equal to or exceeding 0.6.

{"binder": "YCDGHLPRYMEKCM [Phage-751]", "cat": "Criterion not met"}
{"binder": "YCDGHEPQYMTKCL [Phage-843]", "cat": "Criterion not met"}
{"binder": "YCEGHLQEYMGKCL [Phage-860]", "cat": "Criterion met"}
{"binder": "YCEGHVELYRQKCL [Phage-864]", "cat": "Criterion met"}
{"binder": "YCEGHLAVHMSKCL [Phage-854]", "cat": "Criterion not met"}
{"binder": "YCAGHTTEYIVKCL [Phage-868]", "cat": "Criterion met"}
{"binder": "YCFGHFPEYMAKCL [Phage-773]", "cat": "Criterion not met"}
{"binder": "YCFGHAPEYLLKCL [Phage-763]", "cat": "Criterion not met"}
{"binder": "YCEGHIKDYMTKCL [Phage-875]", "cat": "Criterion met"}
{"binder": "YCDGHSGEYMSKCL [Phage-819]", "cat": "Criterion not met"}
{"binder": "YCEGHSSVYLWKCL [Phage-765]", "cat": "Criterion not met"}
{"binder": "YCAGHAQEYMRKCL [Phage-872]", "cat": "Criterion met"}
{"binder": "YCAGHMPQYMSKCL [Phage-834]", "cat": "Criterion not met"}
{"binder": "YCDGHSQIYMSKCL [Phage-882]", "cat": "Criterion met"}
{"binder": "YCDGHFTWYMAKCL [Phage-809]", "cat": "Criterion not met"}
{"binder": "YCDGHSAEYLGKCL [Phage-795]", "cat": "Criterion not met"}
{"binder": "YCEGHAQQYMLKCL [Phage-831]", "cat": "Criterion not met"}
{"binder": "YCEGHAPQYMSKCL [Phage-755]", "cat": "Criterion not met"}
